Just for reference, the Deep4Chem optical property database is where these values come from.

Experiment: solvent given as SMILES
Conditions: in CO
Property: absorption maximum (nm)
Only the number, expressed in nm, is required.

# count of solved cases: 2
>  <Chemical smiles>
C(=C\c1c[nH]c2ccccc12)/c1cc[n+]2ccc(/C=C/c3c[nH]c4ccccc34)cc2c1

>  <Numeric result>
489

$$$$
>  <Chemical smiles>
Cc1ccc(C(=O)NN2C3=C(CC4=C2CCCC4=O)C(=O)CCC3)cc1

>  <Numeric result>
374

$$$$

Task: Return reported absorption maximum; argument: `CC1=N/C(=C\c2ccccc2N(C)C)C(=O)N1C`
Result: 398

Task: Let us now turn to `O=c1ccc2cc3c(cc2o1)OCC3`
Result: 333
